Experiment: acute toxicity in mice after administration per os (Litchfield and Wilcoxon)
Settings: mouse, in vivo, po, mice of both sexes, deaths within 14 days
measurementKind: LD50 at 336 h

A selection of reference data follows.
# compoundStructure, measurementKind, result
measured = [
    ("C=CCN1CCc2nc(N)sc2CC1.Cl.Cl", "LD50 at 336 h", "455 mg/kg"),
    ("CCN1CCc2nc(N)sc2CC1.Cl.Cl", "LD50 at 336 h", "> 1500 mg/kg"),
    ("CCN1CCc2nc(N)oc2CC1.Cl.Cl", "LD50 at 336 h", "2210 mg/kg"),
    ("Cl.Cl.Nc1nc2c(s1)CCN(CCO)CC2", "LD50 at 336 h", "~1000 mg/kg"),
]

Query: Tell me the measured LD50 at 336 h of "Nc1nc2c(s1)CCN(Cc1ccc(Cl)cc1)CC2" , please.
Result: 905 mg/kg
